- measured-on: Mouse ACVR2A (mouse, UniProt P27038 20-135, limits assumed)
- Sequence (P27038 20-135 limits assumed): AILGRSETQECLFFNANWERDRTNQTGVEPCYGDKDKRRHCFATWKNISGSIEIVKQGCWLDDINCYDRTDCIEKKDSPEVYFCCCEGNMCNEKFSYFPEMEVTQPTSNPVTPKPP
- protocol-summary: ELISA; note: test concentration or dose not given here
Items are presented alongside their recorded optical density.
Write the answer as a number in OD, unit excluded.

Known results for binders:
371_E05 (antibody, V domains shown, VH/VL only) VH: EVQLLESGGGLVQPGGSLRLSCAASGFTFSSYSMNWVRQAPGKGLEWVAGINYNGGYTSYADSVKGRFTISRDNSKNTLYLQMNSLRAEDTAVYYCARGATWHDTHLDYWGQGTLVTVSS VL: DIQMTQSPSSLSASVGDRVTITCRASQSIISYLNWYQQKPGKAPKLVIYAATSRASGVPSRFSGSGSGTDFTLTISSLQPEDFATYYCQQSYSSPLTFGGGTKVEIK	3.18
373_B09 (antibody, V domains shown, VH/VL only) VH: EVQLLESGGGLVQPGGSLRLSCAASGFTFDSYSMNWVRQAPGKGLEWVSGINYNGGYKSYADSVKGRFTISRDNSKNTLYLQMNSLRAEDTAVYYCARGATWHDTHLDYWGQGTLVTVSS VL: DIQMTQSPSSLSASVGDRVTITCRASQSILSYLNWYQQKPGKAPKLVIYAATSLASGVPSRFSGSGSGTDFTLTISSLQPEDFATYYCQQSYETPLTFGGGTKVEIK	3.62

Proceeding to the next binder to report its optical density.
Answer with reported optical density of 369_H02 (antibody, V domains shown, VH/VL only) VH: EVQLLESGGGLVQPGGSLRLSCAASGFTFDDYSMNWVRQAPGKGLEWVSNINYNGGYKSYADSVKGRFTISRDNSKNTLYLQMNSLRAEDTAVYYCARGATWHDTHLDYWGQGTLVTVSS VL: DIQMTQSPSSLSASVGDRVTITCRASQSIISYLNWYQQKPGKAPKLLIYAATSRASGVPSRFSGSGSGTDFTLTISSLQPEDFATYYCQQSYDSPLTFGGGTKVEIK
3.29
